The entries below come with measured apparent KD of K4 kissing-loop reporter values attached.
System: K4 kissing-loop RNA reporter;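 further: bound reporter read as fluorescence of individual clusters on recovered sequencing chips by microscopy, with normalized cluster intensities fitted with a binding model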
test: apparent KD of K4 kissing-loop reporter; higher = weaker reporter binding
cond: Eterna round: R107; input ligand: arginine 13.2 mM
Give the value, in units of nM, as a plain number.

Here is how some sequences turned out for apparent KD of K4 kissing-loop reporter.
- AAUAAGGUCGCCGAUACCAGCGCGGGCAGAGCAAAGCUCUGCCCGGCAGUGAUGUUGCCGCGCCCUUGGCAGCGGUGGCACGACC [Omei KL Theo B SS C v7]: 48.4
- AAAAUAAACCAGUGAUGUUGGUGUCCAGAUACCAGCGAUAAAAGUCGCCCUUGGCAGCUGUGGACGUACAAAAUAAGUACGUCCU [MatMod 2 - Jieux - Same State - Theophylline A]: 533
- UGUCAUUGGUCUGAUACCAGUCCCUUGGCAGCCUAAAGGAGUGAUGUUCCAAGGAUACCAGACCCUUGGCAGCAGACCGAUGACU [TheoBS 28 #DoubleAptamer #SwitchBubble]: 312
- CUUAUGGCGUUUGGAAGGAGCGGCUCAUCACGAGGACCGGUACGGCCGCCACUCGAGAGAGCAUAAGAAAGUGAUGUUUUCGGUU [theeternabot_sameState_KL_Trp_A_44]: 415
- UAAAUAAAAUCCUAGUGAUGUUAGGAUAUGUAGGAUAUCGGGAUACCGAGAAGGACAGAAGGAGGAGUGAUGUUCCUCAAUAAAU [FmnAX 30 #DoubleAptamer #DoubleK4 #OpenEnded]: 72.1

Quick one: apparent KD of K4 kissing-loop reporter of GUUAAAUAAAUGGGCAUAGUGAUGUUGUGUCGAGGACCGGUACGGCCGCCACUCGAGCUAGCAUGCCGGUCAUUAUGGGUAGUUU [theeternabot_exclusion_KL_Trp_A_46] ?
118

Quick one: apparent KD of K4 kissing-loop reporter of AGAGUACGAAAGUACUCCUCUACACACUGUCGAGGACCGGUACGGCCGCCACUCGAGUUGAGUGAUGUUCGAUAGUGUGUAGAGA [Omei KL Tryp A SS C v4] ?
57.3

Quick one: apparent KD of K4 kissing-loop reporter of AAAUAGAUCAGUCACCCAGUGAUGUUGGAAGGAGCGUGCGAAAGCACAGGUAGGUCGCCAAAAUAAAAGUGGCUGAUCAAAAUAA [#SwitchBubble 5 #K4Early] ?
300

Quick one: apparent KD of K4 kissing-loop reporter of AUGGGUUGUUGAAGGAGCGCCGCCAGUGAUGUUGGGAGUUAGAUACCAGUGAUGUUGGGCCGGCAGGUAGGUCGCGGCGAUUUAU [Exclusion Arginine B GF 19] ?
170

Quick one: apparent KD of K4 kissing-loop reporter of UGAUACCAGACGGCCGCCACUCCCGCAGGUCAAAGACCUGCGAAGAAGGUUUUUUAGUGAUGUUGGAGGACCGGGUCUGGUAUCU [FiskerMod 20 - Jieux - Exclusion - Tryptophan B] ?
92.6

Quick one: apparent KD of K4 kissing-loop reporter of AAUUUAUUAUCUGAUACCAGACUUUAUCUUGUUUAUAAGUCAAGUGAUGUUUGACUAUUAGUCCCUUGGCAGCAGUAUUUUUUAA [JR_Nu_SSTheophyB_Sub025] ?
260
